- System: Escherichia coli TOP10;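 note: peptides expressed intracellularly from a pBAD plasmid library in pooled LB shake-flask culture, induced with 0.3% L-arabinose, DNA abundance read by NGS, three biological replicates, DESeq2 with apeglm shrinkage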
- assay remarks: shrunken log2 fold change of peptide-encoding DNA abundance (4.5 h post-induction vs induction); higher = less antimicrobial activity (less host growth inhibition)
- experimental parameters: time post-induction: 4.5 h; library: site-saturation at positions 5, 18, 19, 20
value kind: shrunken log2 fold change

RRIRLRPPRLPRPRPRPQNAPRP = 0.223
RRIRARPPRLPRPRPRPYMIPRP = -0.494
RRIRVRPPRLPRPRPRPFCWPRP = 0.163
RRIRSRPPRLPRPRPRPDFFPRP = -0.0547
RRIRFRPPRLPRPRPRPQLIPRP = -0.313
RRIRKRPPRLPRPRPRPLPCPRP = 0.213
RRIRDRPPRLPRPRPRPYNFPRP = -0.0811
RRIRARPPRLPRPRPRPQDNPRP = -0.0337
RRIRMRPPRLPRPRPRPWPNPRP = 0.25
RRIRCRPPRLPRPRPRPESPPRP = 0.315
RRIRLRPPRLPRPRPRPHPQPRP = 0.0301
RRIRQRPPRLPRPRPRPEMQPRP = 0.0355
RRIRGRPPRLPRPRPRPQNAPRP = 0.00487
RRIRPRPPRLPRPRPRPRLWPRP = 0.917
RRIRHRPPRLPRPRPRPNSYPRP = 0.118
